As shown below, each of these sequences has a reported Avg % Deletion value.
Tested on: TTR
Assay explanation: TTR editing in HUH7 cells transfected with Spy Cas9 mRNA and dgRNAs (Table 5)
Format: cell-based, human
Test context: HUH7 cells co-transfected with Spy Cas9 mRNA (SEQ ID NO:2) and dgRNAs
Give the quantity in %, number only.

{"columns": ["Sequence text", "Measurement units", "Avg % Deletion"],
 "data": [
  ["AAAGUUCUAGAUGCUGUCCG (tested as dual guide RNA, chemistry not given here) [CR003346]", "%", 6.97],
  ["CUGCUCCUCCUCUGCCUUGC (tested as dual guide RNA, chemistry not given here) [CR003335]", "%", 27.57],
  ["GCGGCGGGGGCCGGAGUCGU (tested as dual guide RNA, chemistry not given here) [CR003374]", "%", 2.87]
]}

In the following, a different sequence is considered.
Request - read-out Avg % Deletion | tested on TTR | sequence GCAGGGCGGCAAUGGUGUAG (tested as dual guide RNA, chemistry not given here) [CR003380]
29.29
